Method description: In vivo biodistribution and clearance in PC-3 tumor-bearing mice
Test settings: male, NMRI-Foxn1 nu/nu, mouse, pancreas, iv, total radioactivity; 48 h p.i., i.v.; read-out: % uptake pancreas

# Compound, tissue uptake at 48 h [%ID/g]
rows = [
    ("CC(C)CC(CC(C)C)NC(=O)[C@H](Cc1cnc[nH]1)NC(=O)CNC(=O)[C@@H](NC(=O)[C@H](C)NC(=O)[C@H](Cc1c[nH]c2ccccc12)NC(=O)[C@H](CCC(N)=O)NC(=O)[C@@H](Cc1ccccc1)NC(=O)COCC(=O)Nc1ccc(CNC(=O)CN2CCN(CC(=O)O)CCN(CC(=O)O)CCN(CC(=O)O)CC2)cc1)C(C)C [[^177Lu]Lu-NeoB, metal not drawn]", 0.83),
    ("CC(C)C[C@H](NC(=O)C[C@H](O)[C@H](CC(C)C)NC(=O)[C@H](Cc1c[nH]cn1)NC(=O)CNC(=O)[C@@H](NC(=O)[C@H](C)NC(=O)[C@H](Cc1c[nH]c2ccccc12)NC(=O)[C@H](CCC(N)=O)NC(=O)[C@@H](Cc1ccccc1)NC(=O)CN1CCC(NC(=O)CN2CCN(CC(=O)O)CCN(CC(=O)O)CCN(CC(=O)O)CC2)CC1)C(C)C)C(N)=O [[^177Lu]Lu-RM2, metal not drawn]", 0.14),
]
